Value source: patent US20200087363A1

Target: T1, HLA-B*44:05 (human)
T1 construct: also called peptide-receptive MHC class I molecule
Test: UV peptide exchange, anti-b2m ELISA
Measured endpoint: peptide exchange yield

[[record]]
binder = "MEQQSQEY"
data_value = "50 to 75%"

[[record]]
binder = "DEQLLLRF"
data_value = "20 to 50%"

[[record]]
binder = "DENIQKFIW"
data_value = "50 to 75%"

[[record]]
binder = "AETIFIVRL"
data_value = "20 to 50%"

[[record]]
binder = "SECVKSLSF"
data_value = "> 75%"

[[record]]
binder = "YENILNAI"
data_value = "20 to 50%"

[[record]]
binder = "QEFPAHSL"
data_value = "50 to 75%"

[[record]]
binder = "AEYSVHKI"
data_value = "50 to 75%"

[[record]]
binder = "EENIVAIGI"
data_value = "50 to 75%"

